# measured_target: Protein-arginine deiminase type-4 (Homo sapiens, UniProt Q9UM07)
# Sequence (Q9UM07 whole entry): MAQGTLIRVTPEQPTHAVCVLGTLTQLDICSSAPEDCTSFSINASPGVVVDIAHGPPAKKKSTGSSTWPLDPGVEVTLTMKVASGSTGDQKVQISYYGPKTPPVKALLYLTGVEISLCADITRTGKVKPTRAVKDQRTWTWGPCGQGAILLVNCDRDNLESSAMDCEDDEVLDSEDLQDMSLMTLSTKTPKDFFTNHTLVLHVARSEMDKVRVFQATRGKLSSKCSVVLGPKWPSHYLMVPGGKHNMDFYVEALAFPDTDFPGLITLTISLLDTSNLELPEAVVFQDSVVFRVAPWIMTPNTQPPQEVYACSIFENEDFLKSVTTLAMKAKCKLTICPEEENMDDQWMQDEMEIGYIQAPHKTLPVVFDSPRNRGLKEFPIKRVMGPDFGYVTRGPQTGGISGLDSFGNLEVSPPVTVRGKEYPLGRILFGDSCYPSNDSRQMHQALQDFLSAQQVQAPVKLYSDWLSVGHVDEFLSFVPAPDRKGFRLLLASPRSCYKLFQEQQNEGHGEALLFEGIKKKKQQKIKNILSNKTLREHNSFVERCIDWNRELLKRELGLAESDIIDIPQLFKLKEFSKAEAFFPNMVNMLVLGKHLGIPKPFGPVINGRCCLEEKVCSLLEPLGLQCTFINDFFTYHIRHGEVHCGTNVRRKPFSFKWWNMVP
# assay_comment: RFMS Human PAD4 Functional Assay
# Experimental: Compounds were solubilized in 100% DMSO to achieve a10 mM compound concentration. Compound stock solutions were stored at RT. A series of dilutions were prepared in DMSO and mixed 8 times with 20 μL mixing volume. Final top concentration of compound in the assay is 50 μM. […]
measure: IC50

| molecule | observed_measurement |
| --- | --- |
| COc1cc(C(=O)N2C[C@H]3CC[C@@H]2[C@@H]3N)cc2nc(-c3cc4scc(-c5cn[nH]c5)c4n3CC3CC3)n(C)c12 [US11981680, Example 39] | 35 nM |

The measurements presented in this section are drawn from BindingDB's records for patent US11981680.
